Biological target: Aurora-A (h) (Homo sapiens (Human), UniProt O14965)
Sequence (O14965 whole entry): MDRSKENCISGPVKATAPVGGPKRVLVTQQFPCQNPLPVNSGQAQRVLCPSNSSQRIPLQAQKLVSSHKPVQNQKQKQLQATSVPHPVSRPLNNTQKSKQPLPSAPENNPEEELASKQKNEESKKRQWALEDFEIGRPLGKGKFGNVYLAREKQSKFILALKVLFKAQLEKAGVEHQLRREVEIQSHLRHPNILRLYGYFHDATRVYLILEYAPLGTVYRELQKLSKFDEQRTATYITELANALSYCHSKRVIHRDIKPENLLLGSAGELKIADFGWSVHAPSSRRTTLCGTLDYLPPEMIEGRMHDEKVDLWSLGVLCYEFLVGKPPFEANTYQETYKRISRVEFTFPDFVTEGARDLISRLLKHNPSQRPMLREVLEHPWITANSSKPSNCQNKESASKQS
RECORDED_METRIC: IC50 (nM)
Give bare numbers, in nM.

Query string: Record request: IC50 value, item CC(=O)N1CCC2(CCC(Nc3nc(Nc4cnn(C)c4)ncc3Cl)CC2)CC1
Result string: 22

---

For each of the compounds below, state its AUC(0-t).
Test: Pharmacokinetics after intravenous and oral administration in rats
Type: in vivo
Conditions: rat, plasma, iv dosing, dose 1 mg/kg (Ex. 27: 0.72 mg/kg)
Numbers only, in ng·h/mL.

Some entries whose results are on file:
CN(c1nc(Nc2cnn(C)c2)ncc1Cl)C1CCC2(CC1)CCN(C(=O)CC#N)C2 (single isomer, unassigned) [Ex. 4A]	345
Cn1cc(Nc2ncc(Cl)c(NC3CCC4(CC3)CCN(C(=O)CC#N)C4)n2)cn1 (single isomer, unassigned) [Ex. 14B]	193
COc1cnc(Nc2cc(C3CC3)[nH]n2)nc1NC1CC2CN(C(=O)CC#N)CC2C1 (centres unmarked) [Ex. 52]	197
CN(c1nc(Nc2cnn(C)c2)ncc1Cl)C1CCC2(CCNC2)CC1 (single isomer, unassigned) [Ex. 3.10A]	216
N#CCC(=O)N1CC2CC(Nc3nc(Nc4cnn(CCO)c4)ncc3Cl)CC2C1 (centres unmarked) [Ex. 44]	343
Cn1cc(Nc2ncc(Cl)c(NC3CCC4(CC3)CCN(c3ccc(C#N)cn3)CC4)n2)cn1 [Ex. 27]	452
Cn1cc(Nc2ncc(Cl)c(NC3CN(C(=O)CC#N)CC34CCCC4)n2)cn1 (centres unmarked) [Ex. 18]	731

For the next question, use this compound.
Query string: Query: AUC(0-t); subject: Cc1nn(C)cc1Nc1ncc(Cl)c(NC2CC3CN(C(=O)CC#N)CC3C2)n1 (centres unmarked) [Ex. 64]
Result string: 315

---

Experiment: Pharmacokinetics after intravenous and oral administration in rats
Assay type: in vivo
Details: iv dosing, dose 1 mg/kg (Ex. 27: 0.72 mg/kg)
Please assign a class to every record based on measured Clearance (CL) after iv dosing, with ranges 0 = under 60 mL/min/kg, 1 = from 60 mL/min/kg up to 90 mL/min/kg, 2 = 90 mL/min/kg and over

Use these answered entries as a reference point.
COc1cnc(Nc2cc(C3CC3)[nH]n2)nc1NC1CC2CN(C(=O)CC#N)CC2C1 (stereo not drawn) [Ex. 52]	1
Cc1cnc(Nc2cnn(C)c2)nc1NC1CC2CN(c3ccc(C#N)cn3)CC2C1 (stereo not drawn) [Ex. 59]	0
N#CCC(=O)N1CCC2(CCC(Nc3nc(Nc4cnn(CCO)c4)ncc3Cl)CC2)CC1 [Ex. 50]	0
CC(=O)N1CC2CC(Nc3nc(Nc4cnn(C)c4)ncc3Cl)CC2C1 (stereo not drawn) [Ex. 32]	1
N#CCC(=O)N1CC2CC(Nc3nc(Nc4cnn(CC5CC5)c4)ncc3Cl)CC2C1 (stereo not drawn) [Ex. 46]	1
Cn1cc(Nc2ncc(Cl)c(NC3CC4CNCC4C3)n2)cn1 (stereo not drawn) [Ex. 11]	2

Query string: # classify by Clearance (CL) after iv dosing band: Cn1cc(Nc2ncc(Cl)c(NC3CCC4CN(C(=O)CC#N)CC4C3)n2)cn1 (stereo not drawn) [Ex. 22]
Result string: 2

Query string: Another molecule to check: Cn1cc(Nc2ncc(Cl)c(NC3CCC4(CC3)CCN(C(=O)CC#N)C4)n2)cn1 (single isomer, unassigned) [Ex. 14B]
Result string: 1

Query string: // repeat for CN(c1nc(Nc2cnn(C)c2)ncc1Cl)C1CCC2(CCNC2)CC1 (single isomer, unassigned) [Ex. 3.10A] and report
Result string: 1
